Provide the recorded IC50 for the entries that follow.
- Tested on: MS751 cells
- TEST: MTT cell proliferation assay, MS751
- Type: cell-based, human
- TEST_SETTINGS: Homo sapiens, MS751, read-out: MTT Assay IC50, MS751
Structures can show the parent of a compound that is named as a salt.

stdin: # input molecule: Nc1ccc(/C=C/C(=O)NCC2Oc3c(Cl)cc(-c4ccc(C(=O)N5CCOCC5)cc4)cc3C2=O)cn1 (stereo not shown) [Compound 348] ; wanted: its IC50
stdout: 0.1 to 5 µM

stdin: # input molecule: CC(=O)Nc1ccc(/C=C/C(=O)NCC2Cc3cc(-c4ccc(C(C)=O)s4)cc(Cl)c3O2)cn1 (stereo not shown) [Compound 315] ; wanted: its IC50
stdout: > 30 µM

stdin: # input molecule: COc1cc(-c2ccc(C(=O)N3CCOCC3)cc2)cc2c1OC(CNC(=O)/C=C/c1ccc(N)nc1)C2 (stereo not shown) [Compound 345] ; wanted: its IC50
stdout: < 0.1 µM

stdin: # input molecule: Nc1ccc(/C=C/C(=O)NCC2Cc3cc(-c4ccc(C(=O)N5CCNCC5)cc4)cc(Cl)c3O2)cn1 (stereo not shown) [Compound 246, dihydrochloride] ; wanted: its IC50
stdout: < 0.1 µM

stdin: # input molecule: CC(=O)c1ccc(-c2cc(Cl)c3c(c2)CC(CNS(=O)(=O)/C=C/c2cccnc2)O3)s1 (stereo not shown) [Compound 310] ; wanted: its IC50
stdout: > 30 µM

stdin: # input molecule: CC(=O)c1ccc(-c2cc(Cl)c3c(c2)CC(CNC(=O)/C(C#N)=C/c2ccoc2)O3)s1 (stereo not shown) [Compound 286] ; wanted: its IC50
stdout: 5 to 30 µM

stdin: # input molecule: CC(=O)c1ccc(-c2cc(Cl)c3c(c2)CC(CNC(=O)/C=C/c2ccc(O)nc2)O3)s1 (stereo not shown) [Compound 311] ; wanted: its IC50
stdout: > 30 µM

* * *

- Tested on: 3T3 cells
- TEST: MTT cell proliferation assay, 3T3
- Format: cell-based, mouse
- TEST_SETTINGS: Mus musculus, NIH3T3, 3T3 cells, approximately 64-72 hours incubation; read-out: MTT Assay IC50, 3T3
MEASURED_PROPERTY: IC50

stdin: # input compound: Nc1ccc(/C=C/C(=O)NCC2Cc3c(-c4ccc(C(=O)N5CCOCC5)cc4F)ccc(Cl)c3O2)cn1 (stereo not shown) ; wanted: its IC50
stdout: 0.1 to 5 µM

stdin: # input compound: CC(C)(O)c1ccc(-c2cc(Cl)c3c(c2)CC(CNC(=O)/C=C/c2cccnn2)O3)s1 (stereo not shown) ; wanted: its IC50
stdout: 0.1 to 5 µM

stdin: # input compound: CC(O)c1ccc(-c2cc(Cl)c3c(c2)CC(CNC(=O)/C=C/c2ccc(N)nc2)O3)s1 (stereo not shown) ; wanted: its IC50
stdout: > 30 µM

stdin: # input compound: CC(C)(O)c1ccc(-c2cc(Cl)c3c(c2)CC(CNC(=O)/C=C/c2ccc(N)nc2)O3)s1 (stereo not shown) ; wanted: its IC50
stdout: 5 to 30 µM

* * *

- Test system: Hep G2 cells
- TEST: MTT cell proliferation assay, Hep G2
- Type: cell-based
- TEST_SETTINGS: Homo sapiens, HepG2, incubation approximately 64-72 hours
pIC50: −log10 of the molar value. Where a name gives a salt, the structure may show the parent alone.
Provide the recorded pIC50 for the entries that follow.

stdin: # input compound: CC(O)c1ccc(-c2cc(Cl)c3c(c2)CC(CNC(=O)/C=C/c2cccnc2)O3)s1 (stereo not shown) [Compound 124] ; wanted: its pIC50
stdout: 5.30 to 7.00

stdin: # input compound: Nc1ccc(/C=C/C(=O)NCC2Cc3cc(-c4ccc(C(=O)N5CCNCC5)cc4)cc(Cl)c3O2)cn1 (stereo not shown) [Compound 246, dihydrochloride] ; wanted: its pIC50
stdout: 5.30 to 7.00

stdin: # input compound: Nc1ccc(/C=C/C(=O)NCC2Cc3cc(-c4ccc(C(=O)N5CC(F)(F)C5)cc4)cc(Cl)c3O2)cn1 (stereo not shown) [Compound 226] ; wanted: its pIC50
stdout: > 7.00

stdin: # input compound: Nc1ccc(/C=C/C(=O)NCC2Cc3cc(-c4ccc(C(=O)N5CCOCC5)cc4)cc(Cl)c3O2)cn1 (stereo not shown) [Compound 302] ; wanted: its pIC50
stdout: > 7.00
